# targetOrTestSystem: BCL-6/NCOR2 (Homo sapiens)
# runDescription: Inhibition of BCL6/SMRT protein protein interaction (unknown origin) by TR-FRET assay
quantityKind: IC50 (µM)

> print(dat)
                           structure  quantitykind  datavalue
1  COc1ccc(Nc2nc(NCC(C)C)ncc2F)cc1Cl          IC50         19

----------
Reported pIC50 by item:
# targetOrTestSystem: B-cell lymphoma 6 protein (Homo sapiens, UniProt P41182)
pIC50: −log10 of the molar value.
quantityKind: pIC50

> print(dat)
                                  structure                        targetortestsystem  quantitykind  datavalue
1  CNC(=O)COc1cc2cc(Nc3nc(N4C[C@H](C)C[C@H](C)C4)ncc3Cl)ccc2n(C)c1=O  B-cell lymphoma 6 protein (Homo sapiens, UniProt P41182)         pIC50     ≥ 8.52
2  CNC(=O)COc1cc2cc(Nc3nc(N4CCC(C(=O)N(C)C)CC4)ncc3Cl)cc(OC)c2n(C)c1=O  B-cell lymphoma 6 protein (Homo sapiens, UniProt P41182)         pIC50     ≥ 8.52
